Each recorded value in this set is attributed to patent US11273168B2.

Target: Norepinephrine (NE) uptake (Rattus norvegicus)
Assay: Norepinephrine (NE) uptake inhibitory activity using rat brain synaptosome (hippocampus)
Assay type: biochemical
Settings: tritium-labeled NE 12 nM, 37° C. ten minutes, read-out: 50% inhibitory concentration
Counter-ions that a name gives are not always drawn.
Note to self: use Satisfied only for IC50 readings below 4 nM; a reading exactly at 4 nM still gets Not satisfied.

See these solved cases before continuing.
CC1(C)CN(c2ccc(F)c3c2CCC3)[C@H]2CCCC[C@H]2N1 :: Satisfied
COc1c(F)cc(N2CC(C)(C)N[C@H]3CCCC[C@@H]32)cc1F :: Satisfied

QUERY: Dear reviewer, please state whether CC1(C)CN(c2ccc(OC(F)F)c3occc23)[C@@H]2CCCC[C@H]2N1 has IC50 strictly beneath 4 nM.
RESULT: Not satisfied

QUERY: # TODO verify IC50 < 4 nM strictly for this compound: Clc1ccc(N2CC3(CCC3)N[C@H]3CCCC[C@H]32)cc1
RESULT: Not satisfied

QUERY: Given CC1(C)CN(c2cccc3[nH]ncc23)[C@H]2CCCC[C@H]2N1 , is recorded IC50 strictly lower than 4 nM?
RESULT: Not satisfied

QUERY: Identify whether the compound CC1(C)CN(c2cc(F)c(F)c3occc23)[C@@H]2CCCC[C@@H]2N1 [Example 580, hydrochloride] records IC50 below 4 nM.
RESULT: Not satisfied
